Hello, the source for this data is paper PMC9848256, in case you need it.

test: in vivo; conditions: male, SD, rat, iv, 1 mg/kg
Recorded Endpoint: half-life (min)

>>> test_result("CCCCS(=O)(=O)Oc1ccc(/C=C/C(=O)Nc2cccc(Br)c2)cc1")
32.3

----------
test: in vivo; details: male, SD, rat, iv, 1 mg/kg
Recorded Endpoint: AUC(0-t) (ng·h/mL)

>>> test_result("CCCCS(=O)(=O)Oc1ccc(/C=C/C(=O)Nc2cccc(Br)c2)cc1 [Spartinin C10]")
159

----------
test: in vivo; details: male, SD, rat, iv, 1 mg/kg
Recorded Endpoint: Cmax (µg/mL)

>>> test_result("CCCCS(=O)(=O)Oc1ccc(/C=C/C(=O)Nc2cccc(Br)c2)cc1 [Spartinin C10]")
0.284

----------
test: in vivo; conditions: male, SD, rat, iv, 1 mg/kg
Recorded Endpoint: AUC(0-inf) (ng·h/mL)

>>> test_result("CCCCS(=O)(=O)Oc1ccc(/C=C/C(=O)Nc2cccc(Br)c2)cc1")
184
